- Assay: Small-animal PET of MDA-MB-435 tumor-bearing mice
- Condition Description: female, athymic nude, mouse, in vivo, iv, total radioactivity, MDA-MB-435 tumor uptake
Consider the following molecules and their measured tissue uptake at 2 h readings.
Number in %ID/g, nothing else.

CSCC[C@H](NC(=O)[C@H](CC(C)C)NC(=O)[C@H](Cc1c[nH]cn1)NC(=O)CNC(=O)[C@@H](NC(=O)[C@H](C)NC(=O)[C@H](Cc1c[nH]c2ccccc12)NC(=O)[C@H](CCC(N)=O)NC(=O)CCCCCNC(=O)CC[C@H](NC(=S)Nc1ccc(C[C@H]2CN(CC(=O)O)CCN(CC(=O)O)CCN2CC(=O)O)cc1)C(=O)NCCCC[C@@H]1NC(=O)[C@@H](Cc2ccc(O)cc2)NC(=O)[C@H](CC(=O)O)NC(=O)CNC(=O)[C@H](CCCNC(=N)N)NC1=O)C(C)C)C(N)=O [^68Ga-NOTA-RGD-BBN, metal not drawn]	1.84

API: the following record is the query input.
Q: Recorded tissue uptake at 2 h for CSCC[C@H](NC(=O)[C@H](CC(C)C)NC(=O)[C@H](Cc1c[nH]cn1)NC(=O)CNC(=O)[C@@H](NC(=O)[C@H](C)NC(=O)[C@H](Cc1c[nH]c2ccccc12)NC(=O)[C@H](CCC(N)=O)NC(=O)CCCCCNC(=O)CC[C@H](NC(=O)COCCOCCOCCNC(=O)c1ccc([18F])cc1)C(=O)NCCCC[C@@H]1NC(=O)[C@@H](Cc2ccc(O)cc2)NC(=O)[C@H](CC(=O)O)NC(=O)CNC(=O)[C@H](CCCNC(=N)N)NC1=O)C(C)C)C(N)=O [^18F-FB-PEG3-RGD-BBN] , please?
A: 0.84

Attribution: patent US20100015058A1
